Measured values drawn from patent US8609651B2 for this set.

- assayDetails: Solubilities of clonazepam in water-containing solvents
- Format: physicochemical
- details: 25 °C, pH 6.8, aqueous with cosolvent or surfactant or cyclodextrin, kinetic from dmso stock, Di (ethylene glycol) methyl ether 40% solvent, 60% pH6.8 buffered water
readoutName: solubility (µg/mL)
One number for each entry, in µg/mL.

input: Would you kindly share the measured solubility for O=C1CN=C(c2ccccc2Cl)c2cc([N+](=O)[O-])ccc2N1 ?
output: 1000

====

- assayDetails: Solubilities of clonazepam in water-containing solvents
- Assay type: physicochemical
- details: 25 °C, pH 6.8, aqueous with cosolvent or surfactant or cyclodextrin, kinetic from dmso stock, Di (ethyleneglycol) diethyl ether 80% solvent, 20% pH6.8 buffered water
readoutName: solubility (mg/mL)
One number for each entry, in mg/mL.

input: Would you kindly share the measured solubility for O=C1CN=C(c2ccccc2Cl)c2cc([N+](=O)[O-])ccc2N1 [Clonazepam] ?
output: 38.8
